substrate: OC[C@@H](O)[C@H](O)[C@@H](O)CO; test: purified protein; settings: 1-10 mM xylitol, 1.5 mM NAD+, 50 mM Tris-HCl pH 8.0, 30 °C
quantity-name: Km (mM)
Lab book: enter the figure in mM, no units written.

Data request, read-out Km, for SpXDH C97S mutant (enzyme, Schizosaccharomyces pombe, UniProt P36624 1-360, looked up, SPBC1773.05c protein of S. pombe (SpXDH), cloned into pQE-81L; source: E. coli DH5α, purified (Ni-NTA)) MAPAEKAFVLRKKMDTAIEDRPGQTLTDDHQVKVAIKATGICGSDVHYWKEGGIGDFILKKPMILGHESAGVVVEVGKGVSSLKPGDPVAVEPGCVSRLCDYCRSGRYNLCPHMEFAATPPYDGTLRTYYITTEDFCTKLPKQISVEEGALFEPMSVAVHAMTRGNLKCGSRVLVMGCGTVGLLMMAVAKAYGAIDIVAVDASPSRVEFAQKYVGAKPFTPIAAKENESLPDYAQRYKQAIIEKYGEFDFAVDATGVGICIHTAVLALKRGGTFVQAGNGKPVIDFPINHIINYEINVLGSFRYAHGCYKQSLFLVSNGLVDVKPLITHRFAFKDALKAYETVASGEEGVLKVIIGGPDA
12.3
